test: Drug metabolism in beagle dog liver microsomes after 30 mins by Michaelis-Menten plot analysis; assay type: ADME, Canis lupus familiaris; conditions: beagle, liver microsomes
QUANTITY: Km at 0.5 h (µM)
Give the value in µM but do not write µM after it.

Could you share which Km at 0.5 h value was measured for Cc1nn(C[C@H](F)CN2C3CCC2CC(OCc2cccc(F)c2)C3)c(=O)n1C (stereo partly specified) ?
0.41

----------
assay: Drug metabolism in cynomolgus monkey intestinal microsomes by Michaelis-Menten plot analysis; assay type: ADME, Macaca fascicularis, Intestine, Microsome; conditions: intestinal microsomes
QUANTITY: Km (µM)
Give the value in µM but do not write µM after it.

Could you share which Km value was measured for Cc1nn(C[C@H](F)CN2C3CCC2CC(OCc2cccc(F)c2)C3)c(=O)n1C (stereo partly specified) ?
34.6
